# System: natural, resident populations of Mycobacterium
# method.description: Eradication of mycobacteria in naturally contaminated in-use metalworking fluids
# Assay type: cell-based
# reported.conditions: Fluid 4, 48 hours, 100% of recommended maximum dose
endpoint.name: Log Reduction in Mycobacterial Counts versus Control (no biocide) (log)
Answers are plain numbers, in log.

The cases that follow already have their Log Reduction in Mycobacterial Counts versus Control (no biocide) on record.
In [3]: df
Out[3]:
                                   molecule  readout_value
0                            Cc1cc(O)ccc1Cl           5.24
1  O=c1[nH]sc2ccccc12 [BIT, 1,2-benzisothiazolin-3-one, reference compound]           0.00
2                                Cn1sccc1=O           3.64

Next, consider the following molecule.
Q: Please report the recorded Log Reduction in Mycobacterial Counts versus Control (no biocide) for OCCN1CN(CCO)CN(CCO)C1 .
Result: 0.00

====

# Tested on: natural, resident populations of Mycobacterium
# method.description: Eradication of mycobacteria in naturally contaminated in-use metalworking fluids
# Assay type: cell-based
# reported.conditions: Fluid 2, 48 hours, 50% of recommended maximum dose
What Log Reduction in Mycobacterial Counts versus Control (no biocide) was measured for each of the following?

I need Log Reduction in Mycobacterial Counts versus Control (no biocide) for every entry listed below, if you could help.
1. OCCN1CN(CCO)CN(CCO)C1 [Triazine]
2. Cc1cc(O)ccc1Cl [PCMC]
3. O=c1[nH]sc2ccccc12 [BIT, 1,2-benzisothiazolin-3-one, reference compound]
4. Cn1sccc1=O [MI, 2-methyl-4-isothiazolin-3-one]

Result:
1: 0.00 log; 2: 1.00 log; 3: 0.00 log; 4: 3.80 log

====

# Test system: natural, resident populations of Mycobacterium
# method.description: Eradication of mycobacteria in naturally contaminated in-use metalworking fluids
# Type: cell-based
# reported.conditions: Fluid 2, 48 hours, 100% of recommended maximum dose
Please respond with reported Log Reduction in Mycobacterial Counts versus Control (no biocide) for every item in the list.
Answers are plain numbers, in log.

The examples below pair each entry with its known result.
In [3]: df
Out[3]:
                compound  readout_value
0             Cn1sccc1=O           5.00
1         Cc1cc(O)ccc1Cl           5.00
2  OCCN1CN(CCO)CN(CCO)C1           0.12

Q: May I ask what Log Reduction in Mycobacterial Counts versus Control (no biocide) has been recorded for O=c1[nH]sc2ccccc12 [BIT, 1,2-benzisothiazolin-3-one, reference compound] ?
Result: 0.00
